test.target: T1, GAL4 activation domain fusion (ACT) to HAB1 (UniProt Q9CAJ0 23-511, limits assumed)
T1 construct: pACT-HAB1 fusion in yeast reporter strains; also called pACT-HAB1
T1 sequence (looked up): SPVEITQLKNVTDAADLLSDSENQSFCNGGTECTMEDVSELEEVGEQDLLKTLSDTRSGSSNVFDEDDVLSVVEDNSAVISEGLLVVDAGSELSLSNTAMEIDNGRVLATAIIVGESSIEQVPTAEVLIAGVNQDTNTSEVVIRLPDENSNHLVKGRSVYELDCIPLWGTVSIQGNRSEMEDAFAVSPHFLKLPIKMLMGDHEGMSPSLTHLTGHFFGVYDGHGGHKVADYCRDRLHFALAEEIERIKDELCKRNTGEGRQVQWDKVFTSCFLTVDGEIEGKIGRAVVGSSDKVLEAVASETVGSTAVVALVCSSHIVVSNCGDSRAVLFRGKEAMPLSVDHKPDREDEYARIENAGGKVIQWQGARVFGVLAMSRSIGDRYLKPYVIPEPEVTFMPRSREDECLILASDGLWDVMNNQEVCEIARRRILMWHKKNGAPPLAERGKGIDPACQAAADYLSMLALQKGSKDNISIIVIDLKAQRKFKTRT
method.summary: yeast two-hybrid, X-gal; lowest fludioxonil concentration giving signal
recorded.endpoint: Threshold (µM)
Give the number; µM is assumed, so skip it.

>>> observed("PYR1^K59R,V81I (receptor, not shown: small tags and cut ends, pBD-PYR1 fusion in yeast) MPSELTPEERSELKNSIAEFHTYQLDPGSCSSLHAQRIHAPPELVWSIVRRFDKPQTYRHFIKSCSVEQNFEMRVGCTRDIIVISGLPANTSTERLDILDDERRVTGFSIIGGEHRLTNYKSVTTVHRFEKENRIWTVVLESYVVDMPEGNSEDDTRMFADTVVKLNLQKLATVAEAMARNSGDGSGSQVT")
100

Moving on to the next binder.
Report Threshold for PYR1^K59R,Y120G (receptor, not shown: small tags and cut ends, pBD-PYR1 fusion in yeast) MPSELTPEERSELKNSIAEFHTYQLDPGSCSSLHAQRIHAPPELVWSIVRRFDKPQTYRHFIKSCSVEQNFEMRVGCTRDVIVISGLPANTSTERLDILDDERRVTGFSIIGGEHRLTNGKSVTTVHRFEKENRIWTVVLESYVVDMPEGNSEDDTRMFADTVVKLNLQKLATVAEAMARNSGDGSGSQVT please.
100
